- experimental.target: Leucine aminopeptidase (Plasmodium falciparum (isolate 3D7))
- experiment.notes: P. falciparum M17LAP inhibitors, primary screen, biochemical, fluorogenic H-Leu-NHMec substrate, 1536-well (AID 1619);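 further: plate controls were full reaction with DMSO carrier for no effect and no enzyme background for full effect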
- settings: recombinant M17LAP, H-Leu-NHMec fluorogenic kinetic assay; at 30 µM; active compounds read high
The campaign covered roughly 220,000 compounds. About 830 (0.38%) were called active. Only a sample is shown. Results with a measured potency or affinity are listed apart.
endpoint.label: inhibition (%)
Supply the numeric figure in %, leaving out any unit text.

Known results for compounds:
Cc1ccc(-c2csc(/C(C#N)=C(\O)CCl)n2)cc1 :: 6.37
CCCCCOc1ccc(C(=O)NC(C(=O)O)C(C)C)cc1 (stereo unspecified) :: 46.7

// moving on: another record for inhibition
What inhibition appears in the records for this compound with Leucine aminopeptidase (Plasmodium falciparum (isolate 3D7))? CCCCc1ccc(NC(=O)C(C)CC)cc1 (stereo unspecified) 4.63

###

- experimental.target: Leucine aminopeptidase (Plasmodium falciparum (isolate 3D7)) (UniProt Q8IL11)
- Sequence (Q8IL11 whole entry, looked up): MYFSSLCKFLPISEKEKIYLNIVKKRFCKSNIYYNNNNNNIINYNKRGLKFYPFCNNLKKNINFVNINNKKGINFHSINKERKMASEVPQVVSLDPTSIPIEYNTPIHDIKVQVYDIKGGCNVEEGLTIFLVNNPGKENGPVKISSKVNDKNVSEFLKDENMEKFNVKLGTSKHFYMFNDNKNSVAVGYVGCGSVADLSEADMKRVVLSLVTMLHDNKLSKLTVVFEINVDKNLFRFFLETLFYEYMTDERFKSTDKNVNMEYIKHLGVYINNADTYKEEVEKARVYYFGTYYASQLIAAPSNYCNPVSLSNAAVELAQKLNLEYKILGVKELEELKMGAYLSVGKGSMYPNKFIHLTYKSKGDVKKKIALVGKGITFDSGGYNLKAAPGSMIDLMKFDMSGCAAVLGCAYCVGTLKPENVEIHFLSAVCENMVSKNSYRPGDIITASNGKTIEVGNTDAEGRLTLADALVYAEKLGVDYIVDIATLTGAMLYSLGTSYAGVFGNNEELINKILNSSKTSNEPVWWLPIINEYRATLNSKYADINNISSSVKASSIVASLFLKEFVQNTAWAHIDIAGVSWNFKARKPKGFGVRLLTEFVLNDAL
- experiment.notes: P. falciparum M17LAP inhibitors, primary screen, biochemical, fluorogenic H-Leu-NHMec substrate, 1536-well (AID 1619);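 further: plate controls were full reaction with DMSO carrier for no effect and no enzyme background for full effect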
- settings: recombinant M17LAP, H-Leu-NHMec fluorogenic kinetic assay; at 30 µM; active compounds read high
Hit rate of the full screen: of about 220,000 compounds, about 830 (0.38%) were called active. A selection follows. Results with a measured potency or affinity are listed apart.
Recorded inhibition, one value per entry.
Supply the numeric figure in %, leaving out any unit text.

Known results for molecules:
Cc1ccc(S(=O)(=O)N(C)CC(=O)OCC(=O)NC(c2ccccc2)c2ccccc2)cc1 :: 11.4
Cn1c(SCC(=O)Nc2ccc(N3CCOCC3)cc2)nnc1-c1ccccc1 :: -0.5
Cc1nc(SCC(=O)c2ccc(F)cc2)n[nH]1 :: 19.2

What inhibition appears in the records for this molecule with Leucine aminopeptidase (Plasmodium falciparum (isolate 3D7)) (UniProt Q8IL11)? CC(C)NC(=O)COC(=O)c1ccc(S(=O)(=O)N2CCCC2)cc1 -2.13

Request: CCCNC(=O)COC(=O)c1cc(SC)ccc1Cl 6.08

Request: COc1ccc(-c2noc(CCCC(=O)N3CCOCC3)n2)cc1 -3.55

Request: c1ccc2c(-c3cc(C4CCNCC4)[nH]n3)cccc2c1 -3.07

Request: CC(C)Oc1ccc(C(CC(=O)O)NC(=O)C2CCCCC2)cc1 (stereo unspecified) 4.14

###

- experimental.target: Leucine aminopeptidase (Plasmodium falciparum (isolate 3D7)) (UniProt Q8IL11)
- experiment.notes: P. falciparum M17LAP inhibitors, primary screen, biochemical, fluorogenic H-Leu-NHMec substrate, 1536-well (AID 1619);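 further: plate controls were full reaction with DMSO carrier for no effect and no enzyme background for full effect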
- settings: recombinant M17LAP, H-Leu-NHMec fluorogenic kinetic assay; at 30 µM; active compounds read high
Out of some 220,000 compounds screened, about 830 (0.38%) were called active. A selection follows. Potency and affinity values are given separately.
Recorded inhibition, one value per entry.
Supply the numeric figure in %, leaving out any unit text.

Known results for molecules:
COC(=O)COc1cccc2c(=O)n(CC(=O)N3CCC(C)CC3)ccc12 :: -7.98
Cc1nn(C)c(Cl)c1C(=O)NC(C(=O)O)c1ccccc1 (centres undefined) :: -0.49
O=C(NCCCO)/C(=C\C=C\c1ccccc1)NC(=O)c1ccccc1Cl :: 18.5

Query: inhibition; subject: CCN(CC)C(=O)CSc1nnc(-c2ccc(S(=O)(=O)N3CCCC3)cc2)o1 -8.97

Request: COc1ccc(C)cc1NC(=O)C1CCCCC1C(=O)O (centres undefined) 52.8

Request: O=C(O)CCCCCn1c(SCC(=O)N2CCCC2)nc2ccsc2c1=O 14.5
